# pIC50 listing for each entry below
System: Leishmania infantum
EXPERIMENT SUMMARY: MMV: Inhibition of Leishmania infantum (MHOM/MA/BE/67) in vitro.
Format: functional, organism-based
Friendly reminder that pIC50 comes from taking -log10 of the concentration in mol/L.

Solved cases below.
{"columns": ["COMPOUND", "PROPERTY NAME", "RECORDED MEASUREMENT"],
 "data": [
  ["COc1ccc(CCN2CCC(CN(C)Cc3cnn(-c4ccccc4)c3)CC2)cc1", "pIC50", 4.92],
  ["OCCNc1nc(Nc2ccc(Cl)c(Cl)c2)nc2ccccc12", "pIC50", 5.52],
  ["CN(C)CCCNCc1ccc(-c2ccc(F)c(Cl)c2)o1", "pIC50", 5.38]
]}

Problem: GET pIC50 | system: Leishmania infantum | item: CC1CCCCN1CCCNC(=O)c1ccc2c(c1)sc1nc(-c3ccc(F)cc3)cn12 (stereo not drawn)
Solution: 5.97

----------
Test system: Leishmania infantum
EXPERIMENT SUMMARY: MMV: Inhibition of Leishmania infantum (MHOM/MA/BE/67) in vitro.
Type: functional, organism-based
PROPERTY NAME: IC50 (µM)
Give just the number in µM; leave the unit off.

{"columns": ["MOLECULE", "PROPERTY NAME", "RECORDED MEASUREMENT"],
 "data": [
  ["CCCCCCOC(=O)C1=C(C)NC(=O)NC1c1ccccc1F (configuration not stated)", "IC50", 18.4],
  ["COc1ccc(Nc2nc(NCc3ccccc3)c3ccccc3n2)cc1", "IC50", 1.01],
  ["CCN1CCCC1CNc1[nH]cnc2c3cc(Cl)ccc3nc1-2 (configuration not stated)", "IC50", 16.2],
  ["CCOc1ccc2nc(C)cc(Nc3ccc(Br)cc3)c2c1", "IC50", 4.06],
  ["c1ccc(/C2=N/c3ccccc3/N=C(/c3ccccc3)c3ccccc32)cc1", "IC50", 16.6]
]}

Now, please, on to the next molecule.
Problem: For the molecule CCOc1ccc2nc(C)cc(Nc3ccc(N(C)C)cc3)c2c1 , give its reported IC50.
Solution: 4

----------
# pIC50 listing for each entry below
EXPERIMENT SUMMARY: MMV: Cytotoxicity against human fibroblasts (MRC-5) cells.
STATED CONDITIONS: MRC-5 cells (human fibroblasts)
pIC50: −log10 of the molar value.

{"columns": ["MOLECULE", "pIC50"],
 "data": [
  ["COc1ccc(CCN2CCC(CN(C)Cc3cnn(-c4ccccc4)c3)CC2)cc1", 4.73]
]}

Problem: For the molecule CCOc1ccc2c(c1)CN(Cc1ccc(Cl)cc1)CO2 , give its reported pIC50.
Solution: < 4.49

Problem: For the molecule O=C1c2ccccc2C2=Nc3ccccc3SC(c3cccc(F)c3)C12 (stereo unspecified) , give its reported pIC50.
Solution: < 4.49

Problem: For the molecule CCOc1ccc(Nc2ccnc3cc(Cl)ccc23)cc1 , give its reported pIC50.
Solution: < 4.49

Problem: For the molecule CSC1=NC(=Nc2c(C)cccc2C)C2(CCC(C(C)(C)C)CC2)N1c1ccc(Cl)cc1 (stereo unspecified) , give its reported pIC50.
Solution: < 4.49

Problem: For the molecule CCCCN(CCCC)S(=O)(=O)c1ccc(NC(=O)c2ccco2)cc1 , give its reported pIC50.
Solution: < 4.49

----------
EXPERIMENT SUMMARY: MMV: Cytotoxicity against human fibroblasts (MRC-5) cells.
STATED CONDITIONS: MRC-5 cells (human fibroblasts)
PROPERTY NAME: IC50

Solved cases below.
{"columns": ["MOLECULE", "PROPERTY NAME", "RECORDED MEASUREMENT"],
 "data": [
  ["OC(CNCC1CCCO1)Cn1c2ccc(Cl)cc2c2cc(Cl)ccc21 (stereo unspecified)", "IC50", "> 32 µM"],
  ["O=C(Nc1ccc(-c2nc3cc4ccccc4cc3[nH]2)cc1)c1cccc(Br)c1", "IC50", "> 32 µM"],
  ["CC(C)(C)CC(C)(C)NCC(O)COc1ccc2c(c1)CCC2 (stereo unspecified)", "IC50", "26.1 µM"],
  ["CCOC(=O)c1ccc2nc(-c3ccccc3)cc(O)c2c1", "IC50", "7.58 µM"],
  ["CCOc1ccc(C2N(C)c3ccccc3N2C)cc1", "IC50", "15.5 µM"],
  ["COc1ccc(OC)c(C2C3=C(CC(C)(C)CC3=O)N(c3ccc(Cl)c(Cl)c3)C3=C2C(=O)CC(C)(C)C3)c1", "IC50", "> 32 µM"],
  ["Cc1ccc(-c2cc3c(nn2)-c2ccccc2C3=O)cc1", "IC50", "> 32 µM"],
  ["CN1CCN(c2ccc(Nc3c4ccccc4nc4ccccc34)cc2)CC1", "IC50", "10.9 µM"],
  ["O=C(Nc1cccc(-c2nc3ccccc3[nH]2)c1)c1cccc(NC(=O)c2ccco2)c1", "IC50", "> 32 µM"],
  ["CCOc1cc(Cl)c(C(C)NC(=O)c2ccccc2)cc1OCC (stereo unspecified)", "IC50", "> 32 µM"]
]}

Now, please, on to the next molecule.
Problem: For the molecule O=[N+]([O-])c1ccc(C=NNc2nc3ccccc3[nH]2)cc1 , give its reported IC50.
Solution: > 32 µM

----------
EXPERIMENT SUMMARY: MMV: Cytotoxicity against human fibroblasts (MRC-5) cells.
STATED CONDITIONS: MRC-5 cells (human fibroblasts)
# IC50 listing for each entry below

{"columns": ["MOLECULE", "IC50"],
 "data": [
  ["CCOC(=O)c1cnc2ccc(CC)cc2c1O", "> 32 µM"]
]}

Problem: For the molecule CCN(CC)c1ccc(NC(=O)c2cccs2)cc1 , give its reported IC50.
Solution: > 32 µM

Problem: For the molecule CCCCCCC(O)(c1ccc(F)cc1)C(CN1CCOCC1)c1ccccc1 (stereo not drawn) , give its reported IC50.
Solution: > 32 µM

Problem: For the molecule CCCCOc1ccc(C(=O)Nc2cc(C)on2)cc1 , give its reported IC50.
Solution: > 32 µM

Problem: For the molecule Cc1cc(NC(=O)c2ccc(-c3ccccc3)cc2)no1 , give its reported IC50.
Solution: > 32 µM

Problem: For the molecule CCN1CCN(c2c(C(=O)c3ccccc3)cnc3cc(OC)c(OC)cc23)CC1 , give its reported IC50.
Solution: > 32 µM

Problem: For the molecule CCN(CC)CCCNc1ccnc2cc3ccccc3cc12 , give its reported IC50.
Solution: > 32 µM

Problem: For the molecule Cc1ccc(CSCc2ccc(C(=O)NC3CC3)o2)cc1 , give its reported IC50.
Solution: > 32 µM

Problem: For the molecule Cc1ccc(C)c(Cn2c(N3CCC(C(=O)NCc4cccs4)CC3)nc3ccccc32)c1 , give its reported IC50.
Solution: > 32 µM

Problem: For the molecule CCCCOC(=O)c1ccc(Nc2cc(C)nc3ccc(OC)cc23)cc1 , give its reported IC50.
Solution: 14.3 µM

Problem: For the molecule Cc1ccc(C(=O)c2oc3ccc4c(C)cc(=O)oc4c3c2C)cc1 , give its reported IC50.
Solution: 21.2 µM

Problem: For the molecule O=C(NCC1Cc2cccc(-c3ccncc3)c2O1)c1csc2c1CCCC2 (stereo not drawn) , give its reported IC50.
Solution: 28.5 µM

Problem: For the molecule COc1ccc(Nc2nc(NCc3ccccc3)c3ccccc3n2)cc1 , give its reported IC50.
Solution: 12.4 µM

Problem: For the molecule COc1ccccc1CNC(=O)C1c2ccccc2C(=O)N(CC(C)C)C1c1cccs1 (stereo not drawn) , give its reported IC50.
Solution: > 32 µM

Problem: For the molecule COc1ccc(C(C)=O)cc1N1C(=O)C2C(C1=O)C1(c3ccccc3)C(=O)C2(c2ccccc2)C(c2ccc(C)cc2)=C1c1ccc(C)cc1 (stereo not drawn) , give its reported IC50.
Solution: > 32 µM

Problem: For the molecule COc1ccccc1N1CCN(C(CNS(=O)(=O)c2ccc(Cl)cc2)c2cccnc2)CC1 (stereo not drawn) , give its reported IC50.
Solution: > 32 µM

----------
EXPERIMENT SUMMARY: MMV: Cytotoxicity against human fibroblasts (MRC-5) cells.
STATED CONDITIONS: MRC-5 cells (human fibroblasts)
PROPERTY NAME: IC50

Solved cases below.
{"columns": ["COMPOUND", "RECORDED MEASUREMENT"],
 "data": [
  ["COc1ccc(-c2cn3c(C(=O)Nc4ccccc4Cl)c(-c4ccccc4)c4c3n2CCCC4)cc1", "> 32 µM"],
  ["C[n+]1c2ccccc2nc2ccc(NCCO)cc21", "> 32 µM"],
  ["CC(C)c1ccc(CNCC(O)c2ccccc2)cc1 (stereo unspecified)", "13 µM"],
  ["c1ccc2c(NCCCCCCNc3c4c(nc5ccccc35)CCCC4)c3c(nc2c1)CCCC3", "4.06 µM"],
  ["Cc1ccc(-c2cc3nc4c(c(O)n3n2)CCCC4)cc1", "> 32 µM"],
  ["CCOc1cc2c(cc1OCC)C(c1cc(Cl)c(O)c(OCC)c1)NCC2 (stereo unspecified)", "> 32 µM"],
  ["COc1ccc(CCNC(=O)c2cc(S(=O)(=O)N3CC(C)CC(C)C3)ccc2Sc2ccc(F)cc2)cc1OC (stereo unspecified)", "> 32 µM"],
  ["CCOc1ccc(-c2nonc2NC(=O)c2cccc(C)c2)cc1OCC", "> 32 µM"],
  ["CCOc1cc2c(cc1OCC)C(c1cc(OC)c(O)cc1Cl)NCC2 (stereo unspecified)", "> 32 µM"],
  ["Oc1c2c(nc3cc(-c4ccccc4)nn13)CCCC2", "> 32 µM"]
]}

Problem: For the compound Cc1ccc(CN2CCC(C(=O)Nc3ccc(-c4cc5ccccc5[nH]4)cc3)CC2)o1 , give its reported IC50.
Solution: 15.7 µM
